tested on: TF-1; test: TF-1 cell proliferation experiment (CellTiter Glo); type: cell-based; conditions: Homo sapiens; TF-1 cells, 72 hours; read-out: TF-1 (μM), proliferation inhibition
QUANTITY: IC50

Short answer for CN1CCN(CCOc2ccc(Nc3ncc4c(n3)N(c3cccc(S(=O)(=O)NC(C)(C)C)c3)CC4)cc2)CC1 [Compound I-4] : IC50 was 0.18 µM

Summary for this compound, CN1CCN(Cc2ccc(Nc3ncc4c(n3)N(c3cccc(S(=O)(=O)NC(C)(C)C)c3)CC4)cc2)CC1 [Compound I-12] : IC50 is 0.2 µM

Data point: CN1CCN(c2ccc(Nc3ncc4c(n3)N(c3cccc(S(=O)(=O)NC(C)(C)C)c3)CC4)cc2)CC1 [Compound I-15] ; IC50 = 0.12 µM
